Hello, the source for this data is patent US11708367B2, in case you need it.

- study_target: Mer (Homo sapiens (Human), UniProt Q12866)
- Sequence (Q12866 21-999): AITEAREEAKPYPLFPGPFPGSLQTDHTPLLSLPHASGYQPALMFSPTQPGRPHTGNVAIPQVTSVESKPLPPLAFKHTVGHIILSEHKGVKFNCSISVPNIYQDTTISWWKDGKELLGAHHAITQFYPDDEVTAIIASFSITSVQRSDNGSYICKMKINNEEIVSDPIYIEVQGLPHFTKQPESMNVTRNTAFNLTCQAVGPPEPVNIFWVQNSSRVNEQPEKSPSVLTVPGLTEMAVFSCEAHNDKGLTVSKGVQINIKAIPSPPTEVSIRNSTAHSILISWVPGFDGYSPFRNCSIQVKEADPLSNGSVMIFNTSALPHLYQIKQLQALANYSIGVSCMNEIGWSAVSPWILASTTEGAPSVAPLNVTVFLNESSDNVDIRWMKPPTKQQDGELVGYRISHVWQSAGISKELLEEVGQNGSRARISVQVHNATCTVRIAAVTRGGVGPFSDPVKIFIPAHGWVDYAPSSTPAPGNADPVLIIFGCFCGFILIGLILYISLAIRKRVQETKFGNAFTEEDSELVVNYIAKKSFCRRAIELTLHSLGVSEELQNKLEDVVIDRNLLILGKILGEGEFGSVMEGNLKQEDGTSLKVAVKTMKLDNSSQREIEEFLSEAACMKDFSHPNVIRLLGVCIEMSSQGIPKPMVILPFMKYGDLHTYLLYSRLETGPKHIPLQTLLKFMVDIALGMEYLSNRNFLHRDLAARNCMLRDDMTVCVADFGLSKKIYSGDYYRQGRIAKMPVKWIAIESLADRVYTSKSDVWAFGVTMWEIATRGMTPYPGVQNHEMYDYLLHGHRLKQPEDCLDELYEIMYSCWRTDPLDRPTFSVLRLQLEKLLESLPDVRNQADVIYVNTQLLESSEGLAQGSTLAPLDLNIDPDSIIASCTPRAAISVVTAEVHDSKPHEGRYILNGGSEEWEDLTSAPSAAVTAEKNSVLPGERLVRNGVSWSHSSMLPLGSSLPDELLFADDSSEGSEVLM
- assay_protocol: Mer autophosphorylation ELISA in transient transfected 293A cells
- Assay type: cell-based
- measurement_setup: cellular, MERTK-transfected 293A cells, phospho-Mer ELISA
pIC50: −log10 of the molar value.
measurement_type: pIC50

Previously resolved entries follow.
>>> test_value("Cn1cc(-c2cc3ncnc(Oc4ccc(NC(=O)C5(C(=O)Nc6ccc(F)cc6)CC5)cc4)c3cn2)cn1 [Compound 130]")
"7.00 to 8.00"
>>> test_value("COCCOc1cc2ncnc(Oc3ccc(NC(=O)C4(C(=O)Nc5ccc(F)cc5)CC4)c(F)c3)c2nc1OC [Compound 81]")
"≥ 8.00"
>>> test_value("COc1nc2c(Oc3ccc(NC(=O)C4(C(=O)Nc5ccc(F)cc5)CC4)c(C)c3)ncnc2cc1OCCCN1CCOCC1 [Compound 71]")
"< 6.52"

Please state, for each entry, its recorded pIC50.
1. COCCOc1cc2ncnc(Oc3cc(F)c(NC(=O)C4(C(=O)Nc5ccc(F)cc5)CC4)cc3F)c2nc1OC [Compound 83]
2. COCCOc1cc2ncnc(Oc3ccc(NC(=O)C4(C(=O)Nc5ccc(F)cc5)CC4)cc3F)c2nc1OC [Compound 79]
3. COc1cnc2c(Oc3cc(F)c(NC(=O)C4(C(=O)Nc5ccc(F)cc5)CC4)cc3F)ncnc2c1 [Compound 19]

a:
["≥ 8.00", "≥ 8.00", "7.00 to 8.00"]

Just so you know, measured pIC50 for COc1cc2nccc(Oc3ccc(NC(=O)C4(C(=O)Nc5ccc(F)cc5)CC4)cc3)c2nc1OC [Compound 139] came out at ≥ 8.00

* * *

- study_target: Met (Homo sapiens (Human))
- Sequence (P08581 25-1390): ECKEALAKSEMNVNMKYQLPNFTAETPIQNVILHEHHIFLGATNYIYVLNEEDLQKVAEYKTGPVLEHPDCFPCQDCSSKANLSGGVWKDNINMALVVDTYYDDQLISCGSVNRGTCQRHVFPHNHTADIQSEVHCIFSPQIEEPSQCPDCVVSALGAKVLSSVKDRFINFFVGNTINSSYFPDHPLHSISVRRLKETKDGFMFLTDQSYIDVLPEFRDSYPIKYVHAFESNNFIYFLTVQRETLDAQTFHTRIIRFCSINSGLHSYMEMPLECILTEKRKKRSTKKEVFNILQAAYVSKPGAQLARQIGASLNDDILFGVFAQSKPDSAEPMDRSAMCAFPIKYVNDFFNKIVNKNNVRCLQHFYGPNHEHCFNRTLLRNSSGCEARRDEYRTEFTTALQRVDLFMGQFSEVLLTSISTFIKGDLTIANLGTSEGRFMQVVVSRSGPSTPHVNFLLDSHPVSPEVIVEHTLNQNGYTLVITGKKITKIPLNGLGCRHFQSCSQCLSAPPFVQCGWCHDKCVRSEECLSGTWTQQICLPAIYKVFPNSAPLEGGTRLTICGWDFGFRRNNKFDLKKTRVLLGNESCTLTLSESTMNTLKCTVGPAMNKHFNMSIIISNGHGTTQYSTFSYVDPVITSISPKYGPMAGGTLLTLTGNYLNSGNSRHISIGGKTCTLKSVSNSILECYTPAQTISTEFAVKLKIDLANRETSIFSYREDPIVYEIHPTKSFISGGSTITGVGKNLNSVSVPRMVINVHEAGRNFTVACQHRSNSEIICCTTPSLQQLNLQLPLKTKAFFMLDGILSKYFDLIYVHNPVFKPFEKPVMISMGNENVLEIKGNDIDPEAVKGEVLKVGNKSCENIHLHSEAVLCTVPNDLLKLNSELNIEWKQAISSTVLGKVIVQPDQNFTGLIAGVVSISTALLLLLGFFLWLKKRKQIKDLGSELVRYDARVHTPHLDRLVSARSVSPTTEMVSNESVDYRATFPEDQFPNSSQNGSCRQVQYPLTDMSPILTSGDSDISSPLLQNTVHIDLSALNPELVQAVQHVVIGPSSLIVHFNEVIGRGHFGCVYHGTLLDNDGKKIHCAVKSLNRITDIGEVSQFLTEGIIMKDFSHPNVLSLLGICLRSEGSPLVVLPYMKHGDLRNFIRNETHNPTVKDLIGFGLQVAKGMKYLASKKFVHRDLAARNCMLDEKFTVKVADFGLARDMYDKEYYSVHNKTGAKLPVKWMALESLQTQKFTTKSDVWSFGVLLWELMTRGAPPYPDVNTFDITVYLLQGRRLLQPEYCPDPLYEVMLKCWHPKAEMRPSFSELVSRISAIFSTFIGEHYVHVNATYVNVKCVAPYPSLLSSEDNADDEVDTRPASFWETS
- assay_protocol: Met autophosphorylation ELISA in PC-3 cells
- Format: cell-based
- measurement_setup: cellular, HGF-stimulated, phospho-Met ELISA, read-out: c-Met IC50
pIC50: −log10 of the molar value.
Give pIC50 for every item shown.

Some molecules with recorded pIC50:
>>> test_value("O=C(Nc1ccc(F)cc1)C1(C(=O)Nc2ccc(Oc3ccnc4cc5c(nc34)OCCO5)c(Cl)c2)CC1")
"6.52 to 7.00"
>>> test_value("COCCOc1cc2nccc(Oc3ccc(NC(=O)C4(C(=O)Nc5ccc(F)cc5)CC4)cc3)c2nc1OC")
"7.00 to 8.00"
>>> test_value("COc1cc2nccc(Oc3ccc(NC(=O)C4(C(=O)Nc5ccc(F)cc5)CC4)cc3F)c2nc1C#N")
"6.52 to 7.00"
>>> test_value("COc1cc2ncnc(Oc3ccc(NC(=O)C4(C(=O)Nc5ccc(F)cc5)CC4)cc3)c2cc1C(N)=O")
"6.52 to 7.00"
>>> test_value("COCCOc1cc2ncnc(Oc3ccc(NC(=O)C4(C(=O)Nc5ccc(F)cc5)CC4)c(F)c3F)c2nc1OC")
"7.00 to 8.00"
>>> test_value("O=C(Nc1ccc(F)cc1)C1(C(=O)Nc2ccc(Oc3ccnc4cc5c(nc34)OCCO5)c(F)c2)CC1")
"< 6.52"

Notebook: `COc1cc2nccc(Oc3cc(F)c(NC(=O)C4(C(=O)Nc5ccc(F)cc5)CC4)cc3F)c2nc1OC` , pIC50 read as 7.00 to 8.00

* * *

- study_target: UniProtKB P30530
- Sequence (P30530 26-894): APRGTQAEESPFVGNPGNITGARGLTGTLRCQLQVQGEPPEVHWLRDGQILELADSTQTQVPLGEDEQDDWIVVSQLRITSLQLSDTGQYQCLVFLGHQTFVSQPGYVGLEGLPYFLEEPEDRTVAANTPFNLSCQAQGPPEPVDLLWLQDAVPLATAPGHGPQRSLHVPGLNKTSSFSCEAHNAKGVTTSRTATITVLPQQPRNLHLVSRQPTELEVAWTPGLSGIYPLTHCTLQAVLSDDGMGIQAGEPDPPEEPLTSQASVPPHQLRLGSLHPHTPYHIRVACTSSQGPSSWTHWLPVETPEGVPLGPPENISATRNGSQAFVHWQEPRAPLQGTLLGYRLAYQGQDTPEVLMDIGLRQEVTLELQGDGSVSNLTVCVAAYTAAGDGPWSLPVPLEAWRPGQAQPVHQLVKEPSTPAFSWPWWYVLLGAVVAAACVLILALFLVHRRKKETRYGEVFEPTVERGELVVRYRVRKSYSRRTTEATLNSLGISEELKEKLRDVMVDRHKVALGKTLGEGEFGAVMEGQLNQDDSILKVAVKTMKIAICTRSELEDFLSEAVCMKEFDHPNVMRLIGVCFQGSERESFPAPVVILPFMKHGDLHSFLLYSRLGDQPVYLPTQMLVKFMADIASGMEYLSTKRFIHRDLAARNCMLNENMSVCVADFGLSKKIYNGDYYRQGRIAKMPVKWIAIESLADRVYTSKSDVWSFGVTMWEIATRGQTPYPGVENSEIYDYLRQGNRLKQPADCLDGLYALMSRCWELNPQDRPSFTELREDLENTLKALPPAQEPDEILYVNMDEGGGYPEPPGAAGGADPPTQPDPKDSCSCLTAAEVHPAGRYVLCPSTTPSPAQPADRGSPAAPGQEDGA
- assay_protocol: AXL autophosphorylation ELISA in A-172 cells
- measurement_setup: cellular, Gas6-stimulated, phospho-AXL ELISA
measurement_type: IC50

>>> test_value("COc1cc2ncnc(Oc3cc(F)c(NC(=O)C4(C(=O)Nc5ccc(F)cc5)CC4)cc3F)c2nc1OC")
"≤ 10 nM"
>>> test_value("COc1nc2c(Oc3ccc(NC(=O)C4(C(=O)Nc5ccc(F)cc5)CC4)c(Cl)c3)ncnc2cc1OCCCN1CCOCC1")
"10 to 100 nM"
>>> test_value("COc1nc2c(Oc3ccc(NC(=O)C4(C(=O)Nc5ccc(F)cc5)CC4)c(C)c3)ncnc2cc1OCCCN1CCOCC1")
"10 to 100 nM"
>>> test_value("COc1cc2ncnc(Oc3ccc(NC(=O)C4(C(=O)Nc5ccc(F)cc5)CC4)cc3)c2cn1")
"> 300 nM"
>>> test_value("COc1cc2ncnc(Oc3ccc(NC(=O)C4(C(=O)Nc5ccc(F)cc5)CC4)cc3)c2cc1C(=O)NC1COC1")
"> 300 nM"

Dear reader, for each entry below, please note its IC50.
1. COc1cc2c(Oc3ccc(NC(=O)C4(C(=O)Nc5ccc(F)cc5)CC4)cc3)ncnc2cn1
2. Cn1cc(-c2cnc3c(Oc4ccc(NC(=O)C5(C(=O)Nc6ccc(F)cc6)CC5)cc4)ncnc3c2)cn1
3. COCCOc1cc2ncnc(Oc3ccc(NC(=O)C4(C(=O)Nc5ccc(F)cc5)CC4)cc3Cl)c2nc1OC

a:
1: > 300 nM; 2: 10 to 100 nM; 3: 10 to 100 nM

* * *

- study_target: UniProt P08581
- assay_protocol: Met autophosphorylation ELISA in PC-3 cells
- Format: cell-based
- measurement_setup: cellular, HGF-stimulated, phospho-Met ELISA, read-out: c-Met IC50
Provide the reported IC50 of each item.

>>> test_value("Cn1cc(-c2cc3ncnc(Oc4ccc(NC(=O)C5(C(=O)Nc6ccc(F)cc6)CC5)cc4)c3cn2)cn1")
"10 to 100 nM"
>>> test_value("COc1cc2ncnc(Oc3ccc(NC(=O)C4(C(=O)Nc5ccc(F)cc5)CC4)cc3)c2cc1C(=O)NC[C@@H]1CCCN1")
"100 to 300 nM"
>>> test_value("COc1cc2ncnc(Oc3ccc(NC(=O)C4(C(=O)Nc5ccc(F)cc5)CC4)c(F)c3)c2nc1OC")
"10 to 100 nM"
>>> test_value("COCCOc1cc2ncnc(Oc3ccc(NC(=O)C4(C(=O)Nc5ccc(F)cc5)CC4)cc3)c2nc1OC")
"100 to 300 nM"

Please look at the items below and tell me IC50 for each one, in order.
1. COc1cc2nccc(Oc3ccc(NC(=O)C4(C(=O)Nc5ccc(F)cc5)CC4)cc3F)c2nc1OC
2. COc1cc2ncnc(Oc3ccc(NC(=O)C4(C(=O)Nc5ccc(F)cc5)CC4)c(Cl)c3)c2nc1OC

a:
1: ≤ 10 nM; 2: 100 to 300 nM

Go through the items and report each one's IC50.
1. COc1nc2c(Oc3ccc(NC(=O)C4(C(=O)Nc5ccc(F)cc5)CC4)c(Cl)c3)ncnc2cc1OCCCN1CCOCC1
2. COc1nc2c(Oc3ccc(NC(=O)C4(C(=O)Nc5ccc(F)cc5)CC4)cc3)ncnc2cc1OCCCN1CCOCC1
3. COc1nc2c(Oc3ccc(NC(=O)C4(C(=O)Nc5ccc(F)cc5)CC4)c(F)c3)ncnc2cc1OCCCN1CCOCC1
4. COc1nc2c(Oc3cc(F)c(NC(=O)C4(C(=O)Nc5ccc(F)cc5)CC4)cc3F)ncnc2cc1OCCCN1CCOCC1
5. COc1cc2ncnc(Oc3ccc(NC(=O)C4(C(=O)Nc5ccc(F)cc5)CC4)cc3)c2cc1C(=O)NC1CC1
6. COc1cc2ncnc(Oc3ccc(NC(=O)C4(C(=O)Nc5ccc(F)cc5)CC4)cc3)c2nc1OC
7. COc1cc2ncnc(Oc3ccc(NC(=O)C4(C(=O)Nc5ccc(F)cc5)CC4)cc3F)c2nc1OC

a:
1: 100 to 300 nM; 2: 10 to 100 nM; 3: 10 to 100 nM; 4: 10 to 100 nM; 5: 100 to 300 nM; 6: 100 to 300 nM; 7: 10 to 100 nM

Give IC50 for each of the items listed below.
1. COc1cc2ncnc(Oc3ccc(NC(=O)C4(C(=O)Nc5ccc(F)cc5)CC4)c(C)c3)c2nc1OC
2. CNC(=O)c1nc2c(Oc3ccc(NC(=O)C4(C(=O)Nc5ccc(F)cc5)CC4)cc3F)ccnc2cc1OC
3. COc1nc2c(Oc3ccc(NC(=O)C4(C(=O)Nc5ccc(F)cc5)CC4)cc3Cl)ncnc2cc1OCCCN1CCOCC1
4. COc1cc2nccc(Oc3ccc(NC(=O)C4(C(=O)Nc5ccc(F)cc5)CC4)cc3)c2nc1C#N
5. COc1cc2nccc(Oc3ccc(NC(=O)C4(C(=O)Nc5ccc(F)cc5)CC4)cc3)c2nc1-c1cn[nH]c1

a:
1: > 300 nM; 2: 100 to 300 nM; 3: 10 to 100 nM; 4: > 300 nM; 5: > 300 nM

Answer for every listed entry: what is its IC50? The entries follow.
1. COc1cc2nccc(Oc3ccc(NC(=O)C4(C(=O)Nc5ccc(F)cc5)CC4)cc3F)c2nc1C(N)=O
2. COc1cc2ncnc(Oc3ccc(NC(=O)C4(C(=O)Nc5ccc(F)cc5)CC4)cc3Cl)c2nc1OC
3. COc1cc2nccc(Oc3ccc(NC(=O)C4(C(=O)Nc5ccc(F)cc5)CC4)cc3)c2nc1C(N)=O
4. COc1nc2c(Oc3cc(F)c(NC(=O)C4(C(=O)Nc5ccc(F)cc5)CC4)cc3F)ccnc2cc1OCCN1CCOCC1
5. COc1nc2c(Oc3ccc(NC(=O)C4(C(=O)Nc5ccc(F)cc5)CC4)cc3C)ncnc2cc1OCCCN1CCOCC1
6. COc1nc2c(Oc3c(F)cc(NC(=O)C4(C(=O)Nc5ccc(F)cc5)CC4)cc3F)ncnc2cc1OCCCN1CCOCC1

a:
["100 to 300 nM", "10 to 100 nM", "> 300 nM", "10 to 100 nM", "100 to 300 nM", "10 to 100 nM"]

Provide IC50 values for the following items, in order.
1. COc1cnc2c(Oc3cc(F)c(NC(=O)C4(C(=O)Nc5ccc(F)cc5)CC4)cc3F)ncnc2c1
2. COCCOc1cc2ncnc(Oc3ccc(NC(=O)C4(C(=O)Nc5ccc(F)cc5)CC4)c(F)c3)c2nc1OC
3. COc1cc2nccc(Oc3ccc(NC(=O)C4(C(=O)Nc5ccc(F)cc5)CC4)cc3Cl)c2nc1OC
4. COc1cc2ncnc(Oc3cc(F)c(NC(=O)C4(C(=O)Nc5ccc(F)cc5)CC4)cc3F)c2nc1OC
5. COc1nc2c(Oc3ccc(NC(=O)C4(C(=O)Nc5ccc(F)cc5)CC4)c(C)c3)ncnc2cc1OCCCN1CCOCC1

a:
1. 10 to 100 nM
2. 10 to 100 nM
3. ≤ 10 nM
4. ≤ 10 nM
5. 100 to 300 nM
